target_or_system: Lipase (Bacteroides thetaiotaomicron)
Sequence (Q8A3J3 whole entry, change not shown): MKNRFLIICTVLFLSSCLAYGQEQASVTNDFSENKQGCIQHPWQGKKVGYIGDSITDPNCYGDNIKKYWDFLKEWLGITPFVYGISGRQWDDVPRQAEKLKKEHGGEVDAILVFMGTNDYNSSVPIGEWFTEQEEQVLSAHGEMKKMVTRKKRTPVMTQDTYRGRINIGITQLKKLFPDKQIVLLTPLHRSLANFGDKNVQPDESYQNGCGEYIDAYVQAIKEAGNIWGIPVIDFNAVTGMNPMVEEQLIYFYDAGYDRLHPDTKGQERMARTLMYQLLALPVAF
assay_protocol: The drug is tested on Bacteroides thetaiotaomicron strain: VPI-5482 for biotransformation. The drug concentrations were measured before and after a 12-h incubation by liquid-chromatography-coupled mass spectrometry (LC–MS)
Type: ADME
Set-up: dose 2 uM
condition_set: 2 µM
value_kind: Bacterial Biotransformation

The examples below pair each entry with its known result.
[
  {
    "molecule": "CC(=O)Nc1ccc(OC(C)=O)cc1 [DIACETAMATE]",
    "Bacterial Biotransformation": "Compound metabolized"
  },
  {
    "molecule": "C#C[C@]1(O)CC[C@H]2[C@@H]3CCC4=Cc5oncc5C[C@]4(C)[C@H]3CC[C@@]21C",
    "Bacterial Biotransformation": "Compound NOT metabolized"
  },
  {
    "molecule": "CC(=O)OCC(=O)NCCCOc1cccc(CN2CCCCC2)c1 [ROXATIDINE ACETATE]",
    "Bacterial Biotransformation": "Compound NOT metabolized"
  },
  {
    "molecule": "C[C@@H]1CC[C@H]2[C@@H](C)C(=O)O[C@@H]3O[C@@]4(C)CC[C@@H]1[C@]32OO4",
    "Bacterial Biotransformation": "Compound NOT metabolized"
  },
  {
    "molecule": "CCN(CC)C(=O)/C(C#N)=C/c1cc(O)c(O)c([N+](=O)[O-])c1",
    "Bacterial Biotransformation": "Compound NOT metabolized"
  },
  {
    "molecule": "N#Cc1ccc2c(c1)N(CCCN1CCC(O)CC1)c1ccccc1S2",
    "Bacterial Biotransformation": "Compound NOT metabolized"
  },
  {
    "molecule": "CC(=O)OCC(CCn1cnc2cnc(N)nc21)COC(C)=O",
    "Bacterial Biotransformation": "Compound NOT metabolized"
  },
  {
    "molecule": "O=C(O)c1cc(/N=N/c2ccc(S(=O)(=O)Nc3ccccn3)cc2)ccc1O",
    "Bacterial Biotransformation": "Compound NOT metabolized"
  },
  {
    "molecule": "COc1ccc([C@@H]2Sc3ccccc3N(CCN(C)C)C(=O)[C@@H]2OC(C)=O)cc1",
    "Bacterial Biotransformation": "Compound NOT metabolized"
  },
  {
    "molecule": "C#C[C@]1(OC(C)=O)CC[C@H]2[C@@H]3CCC4=CC(=O)CC[C@@H]4[C@H]3CC[C@@]21C [NORETHINDRONE ACETATE]",
    "Bacterial Biotransformation": "Compound NOT metabolized"
  }
]

Quick one: Bacterial Biotransformation of COc1ccnc(C[S+]([O-])c2nc3ccc(OC(F)F)cc3[nH]2)c1OC (configuration not stated) ?
Compound NOT metabolized

Quick one: Bacterial Biotransformation of "CC(=O)Oc1ccc(C(c2ccc(OC(C)=O)cc2)c2ccccn2)cc1" ?
Compound metabolized

Quick one: Bacterial Biotransformation of "C[C@]12CCC(=O)C=C1[C@@H]1C[C@@H]1[C@H]1[C@@H]3[C@@H]4C[C@@H]4[C@@]4(CCC(=O)O4)[C@@]3(C)CC[C@@H]12" ?
Compound NOT metabolized

Quick one: Bacterial Biotransformation of "CCS(=O)(=O)CCn1c([N+](=O)[O-])cnc1C" ?
Compound NOT metabolized

Quick one: Bacterial Biotransformation of "C#C[C@]1(O)CC[C@H]2[C@@H]3CCC4=CC(=O)CC[C@@H]4[C@H]3CC[C@@]21CC" ?
Compound NOT metabolized

Quick one: Bacterial Biotransformation of CC(=O)SCC(Cc1ccccc1)C(=O)NCC(=O)OCc1ccccc1 (configuration not stated) ?
Compound metabolized

Quick one: Bacterial Biotransformation of "Nc1ccc(/N=N/c2ccccc2)c(N)n1" ?
Compound NOT metabolized
